In this section we review reported melting point values for a set of molecules.
measurement.label: melting point

>>> recorded_result("CC[C@@]1(O)C(=O)OCc2c1cc1n(c2=O)Cc2c-1nc1cccc3c1c2C(NC(C)=O)CCC3 (stereo partly shown)")
"203 to 206 °C (dec.)"
>>> recorded_result("CC[C@@]1(O)C(=O)OCc2c1cc1n(c2=O)Cc2c-1nc1ccc(C)c3c1c2C(NC(C)=O)CN3 (stereo partly shown)")
"225 to 235 °C"
>>> recorded_result("CC[C@@]1(O)C(=O)OCc2c1cc1n(c2=O)Cc2c-1nc1ccc(Cl)c3c1c2C(NC(C)=O)CN3 (stereo partly shown)")
"250 to 270 °C"
>>> recorded_result("CC[C@@]1(O)C(=O)OCc2c1cc1n(c2=O)Cc2c-1nc1cccc3c1c2CC(S(=O)(=O)O)C3 (stereo partly shown)")
"190 to 200 °C (dec.)"
>>> recorded_result("CC[C@@]1(O)C(=O)OCc2c1cc1n(c2=O)Cc2c-1nc1ccc(C)c3c1c2CCC3N1C(=O)c2ccccc2C1=O (stereo partly shown)")
"285 to 290 °C (dec.)"
>>> recorded_result("CC[C@@]1(O)C(=O)OCc2c1cc1n(c2=O)Cc2c-1nc1ccc(C)c3c1c2CCN3CCNC(C)=O")
"155 to 165 °C (dec.)"
>>> recorded_result("CC[C@@]1(O)C(=O)OCc2c1cc1n(c2=O)Cc2c-1nc1ccc(C)c3c1c2CCN3CCN.Cl")
"210 to 230 °C (dec.)"
